Just for reference, patent US20090214600A1 is where these values come from.

- assay-info: Rabbit plasma Ceftriaxone concentration after IV administration (control)
- Format: in vivo
- condition-info: animal 006, 1.0 Hours, read-out: Plasma Concentration of Ceftriaxone Over Time After IV Administration
metric: concentration at 1 h (µg/mL)

# compound, metric, unit-annotation, result-number
rows = [
    ("CO/N=C(\\C(=O)N[C@@H]1C(=O)N2C(C(=O)O)=C(CSc3nc(=O)c(=O)[nH]n3C)CS[C@H]12)c1csc(N)n1 [Ceftriaxone, Ceftriaxone sodium]", "concentration at 1 h", "µg/mL", 136),
]
